Data credit: patent US8871753B2

target: TYK2 (Homo sapiens); experiment: TYK2 kinase inhibition (Table A1); type: biochemical
Sequence (P29597 whole entry): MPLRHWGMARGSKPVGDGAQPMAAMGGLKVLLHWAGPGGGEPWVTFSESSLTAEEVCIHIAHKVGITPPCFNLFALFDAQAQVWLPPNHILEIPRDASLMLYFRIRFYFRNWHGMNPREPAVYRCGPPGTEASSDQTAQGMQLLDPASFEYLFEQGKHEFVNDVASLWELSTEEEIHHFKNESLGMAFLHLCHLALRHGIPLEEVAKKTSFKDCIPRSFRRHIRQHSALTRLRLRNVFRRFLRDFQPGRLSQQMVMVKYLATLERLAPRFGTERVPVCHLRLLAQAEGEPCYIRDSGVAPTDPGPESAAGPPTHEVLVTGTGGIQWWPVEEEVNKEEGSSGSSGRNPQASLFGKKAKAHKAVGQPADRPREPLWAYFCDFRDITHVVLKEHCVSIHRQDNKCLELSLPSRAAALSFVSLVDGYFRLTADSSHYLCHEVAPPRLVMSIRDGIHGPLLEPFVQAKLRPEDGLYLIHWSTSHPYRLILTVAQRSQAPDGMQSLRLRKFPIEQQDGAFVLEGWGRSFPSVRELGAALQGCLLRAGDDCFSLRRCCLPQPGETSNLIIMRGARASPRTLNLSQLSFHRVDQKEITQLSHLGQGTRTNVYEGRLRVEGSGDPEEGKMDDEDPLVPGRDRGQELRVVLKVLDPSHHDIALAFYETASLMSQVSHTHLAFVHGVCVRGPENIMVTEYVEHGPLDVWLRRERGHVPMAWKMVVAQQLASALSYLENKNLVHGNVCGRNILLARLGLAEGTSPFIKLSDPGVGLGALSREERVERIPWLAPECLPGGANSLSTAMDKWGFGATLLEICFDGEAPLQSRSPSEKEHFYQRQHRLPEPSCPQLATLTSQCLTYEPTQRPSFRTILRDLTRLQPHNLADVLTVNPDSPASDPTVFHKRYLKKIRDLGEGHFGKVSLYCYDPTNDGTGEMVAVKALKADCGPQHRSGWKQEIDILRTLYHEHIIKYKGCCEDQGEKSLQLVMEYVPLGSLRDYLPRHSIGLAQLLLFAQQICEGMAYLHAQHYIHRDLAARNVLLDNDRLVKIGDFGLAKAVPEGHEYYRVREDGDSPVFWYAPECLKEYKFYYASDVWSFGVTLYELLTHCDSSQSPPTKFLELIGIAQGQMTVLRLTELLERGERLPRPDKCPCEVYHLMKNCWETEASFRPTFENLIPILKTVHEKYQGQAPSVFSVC
Counter-ions that a name gives are not always drawn.
Property measured: IC50 (nM)

See these solved cases before continuing.
[
  {
    "Compound": "O=C(Nc1ccc2cc1CCc1cccc(c1)Nc1ncc(Cl)c(n1)N2)C1CCCNC1 (centres unmarked) [Example A44, bis(trifluoroacetate)]",
    "Measurement unit": "nM",
    "IC50": 169
  },
  {
    "Compound": "C[C@H](O)C(=O)Nc1ccc2cc1CCc1cccc(c1)Nc1ncc(Cl)c(n1)N2 [Example A106, trifluoroacetate]",
    "Measurement unit": "nM",
    "IC50": 22
  },
  {
    "Compound": "Cc1noc(C)c1S(=O)(=O)N1CCC(CC(=O)Nc2ccc3cc2CCc2cncc(c2)Nc2ncc(Cl)c(n2)N3)CC1 [Example A231, bis(trifluoroacetate)]",
    "Measurement unit": "nM",
    "IC50": 98
  }
]

1: Cc1cc(C(=O)N2CCC(CC(=O)Nc3ccc4cc3CCc3cccc(c3)Nc3ncc(Cl)c(n3)N4)CC2)n[nH]1 [Example A175, bis(trifluoroacetate)]
2: N#Cc1c(F)cccc1N1CCC(CC(=O)Nc2ccc3cc2CCc2cncc(c2)Nc2ncc(Cl)c(n2)N3)CC1 [Example A234, tris(trifluoroacetate)]
3: CC(C)(C)OC(=O)N1CCC(C(=O)Nc2ccc3cc2CCc2cccc(c2)Nc2ncc(Cl)c(n2)N3)CC1 [Example A27, trifluoroacetate]
4: O=C(Cc1c[nH]cn1)Nc1ccc2cc1CCc1cccc(c1)Nc1ncc(Cl)c(n1)N2 [Example C33, bis(trifluoroacetate)]
Ranking field: IC50; order: falling. Form entry: ranked labels (order as requested).
4, 2, 3, 1
